Test system: A549/ATCC NSCLC
Assay: NCI-60 one-dose screen, 48 h (100 = growth as untreated, 0 = no growth, -100 = all killed)
Details: 10 µM unless noted
Compounds without any hit were thinned out: in the full panel of roughly 83,000, 20% have a hit.
Here the recorded growth is given for each entry.
METRIC_NAME: growth (%)

>>> df
                                smiles_code   assayed_system  metric_name  quantitative_readout
0  COc1cccc(O)c1/C=C(/C)c1ccc2c(OC)cccc2[o+]1  A549/ATCC NSCLC       growth                   107
1   NS(=O)(=O)c1ccc(-n2cc(CN3CCCCC3)nn2)cc1  A549/ATCC NSCLC       growth                   105
2  CC(C)(C)c1ccc(C(=O)Nc2nc3ccc(O)cc3s2)cc1  A549/ATCC NSCLC       growth                  38.4
3  Oc1cccc2ccc(-c3nnc(SCc4ccc(O)c5ncccc45)o3)nc12  A549/ATCC NSCLC       growth                  15.9
4  COc1cc(/C=C2\C(=O)Nc3cc(Cl)ccc32)ccc1OCc1ccc(F)cc1  A549/ATCC NSCLC       growth                   110
5  COc1ccccc1-n1cc(C#N)c(N)c1C(=O)c1ccc(Br)cc1  A549/ATCC NSCLC       growth                  78.6
